Data provenance: ChEMBL document CHEMBL4002640

Target: KCNQ1/KCNE1 (IKs) (Homo sapiens, UniProt P15382+P51787)
Test: Inhibition of human KCNQ1/KCNE1 expressed in HEK293 cells assessed as reduction in slowly activating delayed rectifier cardiac potassium current at 10 uM by patch clamp electrophysiology method
Format: cell-based
Conditions: HEK293 cells expressing human KCNQ1/KCNE1
readout_type: inhibition at 10 µM (%)

Known inhibition at 10 µM results, listed for orientation:
CN(C)C(=O)c1cccc(-c2ccccc2CC(c2cccnc2)c2cccnc2)c1
26
OC(c1cccnc1-c1cccc(Cl)c1)C(c1cccnc1)c1ncco1 (mixture of isomers)
16

I: OC(c1cccnc1-c1cccc(Cl)c1)C(c1cccnc1)c1cccnc1 (racemic)
II: OC(Cc1cccnc1-c1cccc(C(F)(F)F)c1)(c1cccnc1F)c1cccnc1F
III: OC(c1cccnc1-c1cccc(Cl)c1Cl)C(c1cccnc1)c1cccnc1 (racemic)
Rank order required: inhibition at 10 µM, descending. I'd appreciate it if you listed the labels in the requested order. II, I, III
(II: 16%, I: 4.1%, III: -3.3%)

###

Molecular target: Voltage-gated inwardly rectifying potassium channel KCNH2 (Homo sapiens)
Sequence (Q12809 whole entry): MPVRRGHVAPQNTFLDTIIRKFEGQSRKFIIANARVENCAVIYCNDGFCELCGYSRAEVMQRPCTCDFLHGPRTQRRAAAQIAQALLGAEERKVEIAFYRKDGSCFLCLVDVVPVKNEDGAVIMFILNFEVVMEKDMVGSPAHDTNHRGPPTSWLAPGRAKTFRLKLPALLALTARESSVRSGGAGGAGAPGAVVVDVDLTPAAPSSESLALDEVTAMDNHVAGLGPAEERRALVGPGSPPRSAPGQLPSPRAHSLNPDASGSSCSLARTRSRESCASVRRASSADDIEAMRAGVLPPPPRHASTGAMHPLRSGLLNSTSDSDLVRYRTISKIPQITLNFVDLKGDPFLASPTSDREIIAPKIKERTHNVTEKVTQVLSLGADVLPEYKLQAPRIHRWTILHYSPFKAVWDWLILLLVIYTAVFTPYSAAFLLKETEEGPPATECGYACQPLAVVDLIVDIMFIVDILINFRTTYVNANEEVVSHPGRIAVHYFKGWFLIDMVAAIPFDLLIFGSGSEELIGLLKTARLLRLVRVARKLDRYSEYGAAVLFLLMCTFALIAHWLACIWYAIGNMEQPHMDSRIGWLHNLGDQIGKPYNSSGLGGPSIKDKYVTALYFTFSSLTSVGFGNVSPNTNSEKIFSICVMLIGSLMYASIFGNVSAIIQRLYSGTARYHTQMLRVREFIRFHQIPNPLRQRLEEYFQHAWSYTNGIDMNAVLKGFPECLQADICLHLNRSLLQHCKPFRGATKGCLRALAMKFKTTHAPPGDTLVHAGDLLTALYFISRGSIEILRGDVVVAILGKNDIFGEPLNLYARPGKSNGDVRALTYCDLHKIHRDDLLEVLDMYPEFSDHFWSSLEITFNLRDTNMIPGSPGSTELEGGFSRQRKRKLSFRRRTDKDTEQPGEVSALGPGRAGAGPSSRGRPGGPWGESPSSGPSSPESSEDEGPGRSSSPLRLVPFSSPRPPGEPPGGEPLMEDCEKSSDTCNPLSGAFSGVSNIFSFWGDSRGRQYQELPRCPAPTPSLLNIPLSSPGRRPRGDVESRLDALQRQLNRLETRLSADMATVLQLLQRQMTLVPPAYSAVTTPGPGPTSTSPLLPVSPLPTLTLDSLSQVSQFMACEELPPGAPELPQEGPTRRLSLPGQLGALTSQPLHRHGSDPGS
Experiment: Inhibition of human ERG expressed in CHOK1 cells assessed as reduction in rapidly activating delayed rectifier cardiac potassium current by whole-cell voltage-patch clamp assay
Type: cell-based
readout_type: pIC50
Quick note: pIC50 means taking -log10 of the concentration in moles per liter.

Note down pIC50 recorded for `O[C@@H](c1cccnc1-c1cc(Cl)cc(Cl)c1)C(c1cccnc1)c1cccnc1` 3.89

Note down pIC50 recorded for `CS(=O)(=O)Nc1cccc([C@H](c2ccc(F)cc2)C(c2cccnc2)c2cccnc2)n1` 3.96

###

Biological target: KCNQ1/KCNE1 (IKs) (Homo sapiens, UniProt P15382+P51787)
Assay: Inhibition of human KCNQ1/KCNE1 expressed in HEK293 cells assessed as reduction in slowly activating delayed rectifier cardiac potassium current at 10 uM by patch clamp electrophysiology method
Format: cell-based
Settings: HEK293 cells expressing human KCNQ1/KCNE1
readout_type: inhibition at 10 µM (%)

Known inhibition at 10 µM results, listed for orientation:
Cc1cc(F)ccc1-c1ccccc1C(C#N)C(c1cccnc1)c1cccnc1 (stereo unspecified)
9.2
CS(=O)(=O)Nc1cccc(-c2cc(F)ccc2CC(c2cccnc2)c2cccnc2)c1
42
COc1cccc(-c2ncccc2CC(c2cccnc2)c2cccnc2)c1
15
CN(c1cccnc1)c1ncccc1CC(c1cccnc1)c1cccnc1
5

a: OC(c1cccnc1-c1ccccc1Cl)C(c1cccnc1)c1cccnc1 (stereo unspecified)
b: O[C@@H](c1cccnc1-c1cc(Cl)cc(Cl)c1)C(c1cccnc1)c1cccnc1
Identify the entry with the smaller inhibition at 10 µM: a or b . In your reply, give the label of the chosen option. a

###

Experiment: Oral bioavailability in rhesus monkey
Assay type: ADME, organism-based, Macaca mulatta
Conditions: in vivo
readout_type: bioavailability (%)
Supply the numeric figure in %, leaving out any unit text.

Note down bioavailability recorded for `O[C@@H](c1cccnc1-c1cc(Cl)cc(Cl)c1)C(c1cccnc1)c1cccnc1` 21

###

Test: Clearance in rhesus monkey
Assay type: ADME, Macaca mulatta
Conditions: in vivo
readout_type: clearance (mL/min/kg)
Supply the numeric figure in mL/min/kg, leaving out any unit text.

Note down clearance recorded for `O[C@@H](c1cccnc1-c1cc(Cl)cc(Cl)c1)C(c1cccnc1)c1cccnc1` 14.3

###

Molecular target: Voltage-gated potassium channel, IKs; KCNQ1(Kv7.1)/KCNE1(MinK) (Homo sapiens, UniProt P15382+P51787)
Assay: Inhibition of human KCNQ1/KCNE1 expressed in HEK293 cells assessed as reduction in slowly activating delayed rectifier cardiac potassium current by patch clamp electrophysiology method
readout_type: IC50 (µM)
Supply the numeric figure in µM, leaving out any unit text.

Note down IC50 recorded for `CS(=O)(=O)Nc1cccc([C@H](c2ccc(F)cc2)C(c2cccnc2)c2cccnc2)n1` 0.79

###

Test: Oral bioavailability in rat
Type: ADME, organism-based
Conditions: in vivo
readout_type: bioavailability (%)
Supply the numeric figure in %, leaving out any unit text.

Note down bioavailability recorded for `O[C@@H](c1cccnc1-c1cc(Cl)cc(Cl)c1)C(c1cccnc1)c1cccnc1` 34

###

Experiment: Metabolic stability in human hepatocytes up to 3 hrs by mass spectrometry
Format: ADME, cell-based, Hepatocyte
readout_type: Stability

OC(Cc1cccnc1-c1cccc(C(F)(F)F)c1)(c1cccnc1F)c1cccnc1F
Stable
CN(C)C(=O)c1cccc(-c2ccc(F)cc2CC(c2cccnc2)c2cccnc2)c1
Unstable
O[C@@H](c1cccnc1-c1cc(Cl)cc(Cl)c1)C(c1cccnc1)c1cccnc1
Unstable
CS(=O)(=O)Nc1cccc([C@H](c2ccc(F)cc2)C(c2cccnc2)c2cccnc2)n1
Stable

###

Measured pIC50 accompanies every entry in the list below.
Molecular target: Voltage-gated inwardly rectifying potassium channel KCNH2 (Homo sapiens)
Assay: Displacement of [3H]-MK499 from human ERG IKr channel expressed in HEK293 cell membranes
pIC50: −log10 of the molar value.

O[C@@H](c1cccnc1-c1cccc(C(F)(F)F)c1)C(c1cccnc1)c1cccnc1
< 4.52
Clc1ccccc1-c1ncccc1CC(c1cccnc1)c1cccnc1
< 4.52
CN(c1cccnc1)c1ncccc1CC(c1cccnc1)c1cccnc1
< 4.52

Note down pIC50 recorded for `c1cncc(C(Cc2ccccc2-c2ccncc2)c2cccnc2)c1` 4.66

Note down pIC50 recorded for CN(C)C(=O)c1cccc(-c2ncccc2CC(c2ccnc(N)n2)c2cccnc2F)c1 (racemic) < 4.52

Note down pIC50 recorded for OC(c1cccnc1-c1ccccc1Cl)C(c1cccnc1)c1cccnc1 (stereo not given) < 4.52

Note down pIC50 recorded for OC(c1cccnc1-c1cc(Cl)cc(Cl)c1)C(c1cccnc1)c1ccccn1 (mixture of isomers) < 4.52

Note down pIC50 recorded for CC(=O)NC(c1ccccc1-c1cc(Cl)cc(Cl)c1)C(c1cccnc1)c1cccnc1 (stereo not given) < 4.52

Note down pIC50 recorded for `OC(Cc1cccnc1-c1cc(Cl)cc(Cl)c1)(c1cccnc1)c1cccnc1` < 4.52

Note down pIC50 recorded for `c1ccc(-c2ccccc2CC(c2cccnc2)c2cccnc2)cc1` 5.12

###

Species on record: Homo sapiens
Experiment: Substrate activity at human P-gp assessed as efflux ratio
readout_type: Ratio

Known Ratio results, listed for orientation:
OC(c1cccnc1-c1cc(Cl)cc(Cl)c1)C(c1cccnc1)c1ccccn1 (mixture of isomers)
1.1
Nc1cccc(C(c2cccnc2)C(O)c2cccnc2-c2cc(Cl)cc(Cl)c2)n1 (mixture of isomers)
3.4
O[C@@H](c1cccnc1-c1cccc(C(F)(F)F)c1)C(c1cccnc1)c1cccnc1
7

A: CC(=O)NC(c1ccccc1-c1cc(Cl)cc(Cl)c1)C(c1cccnc1)c1cccnc1 (centres undefined)
B: OC(c1cccnc1-c1ccccc1Cl)C(c1cccnc1)c1cccnc1 (centres undefined)
C: OC(Cc1cccnc1-c1cc(Cl)cc(Cl)c1)(c1cccnc1)c1cccnc1
D: OC(c1cccnc1-c1cccc(Cl)c1Cl)C(c1cccnc1)c1cccnc1 (racemic)
E: N#Cc1cccc(-c2cc(F)ccc2CC(c2cccnc2)c2cccnc2)c1
Please put the entries in order of rising Ratio. I'd appreciate it if you listed the labels in the requested order. E, C, D, B, A

###

Molecular target: KCNQ1/KCNE1 (IKs) (Homo sapiens, UniProt P15382+P51787)
Experiment: Inhibition of human KCNQ1/KCNE1 expressed in HEK293 cells assessed as reduction in slowly activating delayed rectifier cardiac potassium current at 10 uM by patch clamp electrophysiology method
Format: cell-based
Conditions: HEK293 cells expressing human KCNQ1/KCNE1
readout_type: inhibition at 10 µM (%)

Known inhibition at 10 µM results, listed for orientation:
Nc1cccc(C(Cc2cccnc2-c2cc(Cl)cc(Cl)c2)c2cccnc2)n1 (stereo not given)
57
Clc1cccc(-c2ncccc2CC(c2cccnc2)c2cccnc2)c1
36
c1cncc(C(Cc2ccccc2-c2cncc3ccccc23)c2cccnc2)c1
77

1: FC(F)(F)Oc1cccc(-c2ncccc2CC(c2cccnc2)c2cccnc2)c1
2: Nc1cccc(C(Cc2cccnc2-c2cccc(C(F)(F)F)c2)c2cccnc2)n1 (stereo not given)
Form field 'greater inhibition at 10 µM' accepts 1 or 2 ; which applies? In your reply, give the label of the chosen option. 1

###

Experiment: Oral bioavailability in dog
Assay type: ADME, organism-based, Canis lupus familiaris
Conditions: in vivo
readout_type: bioavailability (%)
Supply the numeric figure in %, leaving out any unit text.

Note down bioavailability recorded for `O[C@@H](c1cccnc1-c1cc(Cl)cc(Cl)c1)C(c1cccnc1)c1cccnc1` 93

###

Target: A-type voltage-gated potassium channel KCND3 (Homo sapiens)
Sequence (Q9UK17 whole entry): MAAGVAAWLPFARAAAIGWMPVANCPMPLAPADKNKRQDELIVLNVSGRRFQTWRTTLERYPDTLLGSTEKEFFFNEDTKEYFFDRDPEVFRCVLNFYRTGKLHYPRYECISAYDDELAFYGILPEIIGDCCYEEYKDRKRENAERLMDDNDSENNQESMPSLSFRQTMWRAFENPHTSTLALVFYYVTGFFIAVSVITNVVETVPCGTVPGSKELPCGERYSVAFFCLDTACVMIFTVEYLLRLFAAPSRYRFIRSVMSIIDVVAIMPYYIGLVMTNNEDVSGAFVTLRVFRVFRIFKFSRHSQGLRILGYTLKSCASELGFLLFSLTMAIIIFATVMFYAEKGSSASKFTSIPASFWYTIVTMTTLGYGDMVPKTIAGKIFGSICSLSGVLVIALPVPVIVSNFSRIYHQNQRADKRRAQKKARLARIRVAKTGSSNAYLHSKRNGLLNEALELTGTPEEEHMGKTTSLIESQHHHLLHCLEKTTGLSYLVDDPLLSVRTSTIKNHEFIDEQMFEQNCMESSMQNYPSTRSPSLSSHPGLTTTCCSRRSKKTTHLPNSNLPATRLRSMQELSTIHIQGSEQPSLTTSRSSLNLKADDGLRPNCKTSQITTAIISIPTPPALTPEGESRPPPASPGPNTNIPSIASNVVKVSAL
Test: Inhibition of Kv4.3 (unknown origin) assessed as reduction in transient outward potassium current by high throughput clamp method
pIC50: −log10 of the molar value.
readout_type: pIC50

P: O[C@@H](c1cccnc1-c1cc(Cl)cc(Cl)c1)C(c1cccnc1)c1cccnc1
Q: CS(=O)(=O)Nc1cccc([C@H](c2ccc(F)cc2)C(c2cccnc2)c2cccnc2)n1
Form field 'greater pIC50' accepts P or Q ; which applies? In your reply, give the label of the chosen option. Q

###

Target: Potassium voltage-gated channel subfamily A member 5 (Homo sapiens)
Sequence (P22460 whole entry): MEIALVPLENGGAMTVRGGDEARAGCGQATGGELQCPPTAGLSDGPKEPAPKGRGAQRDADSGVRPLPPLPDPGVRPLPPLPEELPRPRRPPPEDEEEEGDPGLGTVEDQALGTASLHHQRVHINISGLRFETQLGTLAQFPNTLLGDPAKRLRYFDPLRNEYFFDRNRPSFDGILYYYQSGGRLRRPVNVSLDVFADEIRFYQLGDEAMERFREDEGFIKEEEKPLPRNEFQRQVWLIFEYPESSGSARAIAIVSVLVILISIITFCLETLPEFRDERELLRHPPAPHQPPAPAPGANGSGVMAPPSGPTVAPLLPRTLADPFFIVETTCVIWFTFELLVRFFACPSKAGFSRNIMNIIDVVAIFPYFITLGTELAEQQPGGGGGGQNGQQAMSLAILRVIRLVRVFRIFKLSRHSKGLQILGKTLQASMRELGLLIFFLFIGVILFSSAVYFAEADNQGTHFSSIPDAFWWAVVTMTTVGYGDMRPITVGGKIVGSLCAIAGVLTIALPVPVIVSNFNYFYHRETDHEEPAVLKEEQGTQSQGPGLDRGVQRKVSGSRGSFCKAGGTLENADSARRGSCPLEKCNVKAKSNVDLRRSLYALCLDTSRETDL
Assay: Inhibition of Kv1.5 (unknown origin)
readout_type: IC50 (nM)

Known IC50 results, listed for orientation:
OC(c1cccnc1-c1cccc(Cl)c1)C(c1cccnc1)c1ncco1 (mixture of isomers)
276
OC(Cc1cccnc1-c1cc(Cl)cc(Cl)c1)(c1cccnc1)c1cccnc1
84
Nc1cccc(C(c2cccnc2)C(O)c2cccnc2-c2cc(Cl)cc(Cl)c2)n1 (mixture of isomers)
153

1: Nc1cccc(C(Cc2cccnc2-c2cccc(C(F)(F)F)c2)c2cccnc2)n1 (centres undefined)
2: CN(c1cccnc1)c1ncccc1CC(c1cccnc1)c1cccnc1
3: Clc1ccccc1-c1ncccc1CC(c1cccnc1)c1cccnc1Cl (centres undefined)
4: CS(=O)(=O)Nc1cccc(-c2cc(F)ccc2CC(c2cccnc2)c2cccnc2)n1
5: OC(c1cccnc1-c1cc(Cl)cc(Cl)c1)C(c1cccnc1)c1ccccn1 (mixture of isomers)
Rank order required: IC50, descending. I'd appreciate it if you listed the labels in the requested order. 4, 5, 2, 1, 3
(4: 1590 nM, 5: 233 nM, 2: 90 nM, 1: 56 nM, 3: 26 nM)

1: Clc1cccc(-c2ncccc2CC(c2cccnc2)c2cccnc2)c1
2: Nc1cccc(C(Cc2cccnc2-c2cc(Cl)cc(Cl)c2)c2cccnc2)n1 (centres undefined)
Identify the entry with the smaller IC50: 1 or 2 . In your reply, give the label of the chosen option. 1
(1: 30 nM, 2: 62 nM)
